target: human PPARdelta (Homo sapiens); construct: amino acids S139-Y441; experiment: cellular PPARdelta assay (stably transfected HEK luciferase reporter cell line); details: GR-GAL4-humanPPARdelta-LBD
Sequence (Q03181 139-441): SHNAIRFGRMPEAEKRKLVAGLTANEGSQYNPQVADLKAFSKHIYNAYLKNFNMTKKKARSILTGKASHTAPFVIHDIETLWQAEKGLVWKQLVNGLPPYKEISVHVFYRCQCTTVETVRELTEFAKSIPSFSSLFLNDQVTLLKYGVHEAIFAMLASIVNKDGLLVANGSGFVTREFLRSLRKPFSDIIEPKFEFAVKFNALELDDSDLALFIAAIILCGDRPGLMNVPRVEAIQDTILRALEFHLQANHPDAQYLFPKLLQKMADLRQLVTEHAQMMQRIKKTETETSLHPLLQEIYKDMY
pEC50: −log10 of the molar value.
We begin with a simple list: items and their reported pEC50.
Value type: pEC50

INSERT INTO assay_data (compound, value_type, endpoint_value) VALUES
  ('CCOc1cc(C(F)(F)F)ccc1C(=O)N[C@@H]1CCC[C@H]1c1ccc(S(=O)(=O)Nc2nnc(C(C)C)s2)cc1 (relative stereo)', 'pEC50', 7.59),
  ('CCOc1cc(C(F)(F)F)ccc1C(=O)NCC1(c2ccc(S(=O)(=O)Nc3nnc(C(C)C)s3)cc2)CCCCC1', 'pEC50', 6.92),
  ('CCOc1cc(C(F)(F)F)ccc1C(=O)NCC1(c2ccc(S(=O)(=O)Nc3nnc(C(C)C)s3)cc2)CCCC1', 'pEC50', 7.68),
  ('CCOc1cc(C(F)(F)F)ccc1C(=O)N[C@@H]1CCC[C@@H]1c1ccc(S(=O)(=O)Nc2nnc(C(C)C)s2)cc1 (relative stereo)', 'pEC50', 6.62);
